The origin of these recorded values is patent US20140377219A1.

- Tested on: primary HIV-1 isolate BCF02 (Group 0, R5)
- procedure_summary: Neutralization assay in PBMC (p24 ELISA)
- run_parameters: read-out: IC50 (μM) ± S.D., inhibitory activity on infection; BCF02, Group 0, PBMC, R5, primary isolate
quantity_name: IC50

• Cc1ccc(NC(=O)C(=O)NC(c2nc(C)c(CCO)s2)C2CCCCN2)cc1F.Cl (stereo not shown) [Compound 38] = ~87 µM
• Cc1ccc(NC(=O)C(=O)NC(c2nc(C)c(CO)s2)C2CCCCN2)cc1F.Cl (stereo not shown) [Compound 28] = > 85 µM
• Cc1nc(C(NC(=O)C(=O)Nc2ccc(Cl)c(F)c2)C2CCCCN2)sc1CCO.Cl (stereo not shown) [Compound 39] = 65.1 µM
• Cc1nc(C(NC(=O)C(=O)Nc2ccc(Cl)cc2)C2CCCCN2)sc1CO.Cl (stereo not shown) [Compound 6] = ~87 µM

* * *

We begin with a simple list: items and their reported CC50.
- Tested on: PBMC
- procedure_summary: Cytotoxicity in PBMC (XTT)
- Format: cell-based
- run_parameters: PBMC, XTT, seven days; read-out: PBMC CC50
- Procedure: Cytotoxicity of small molecules in MT-2 cells and PBMC was measured by the XTT ((sodium 3′-(1-(phenylamino)-carbonyl)-3,4-tetrazolium-bis(4-methoxy-6-nitro)benzene-sulfonic acid hydrate)) method. […] In the case of PBMC, 5×10^5 cells/ml was used and the cytotoxicity was measured after seven days. […] The percentage cytotoxicity and the CC50 values were calculated as described above.
quantity_name: CC50

- CC1(C)CC(NC(=O)C(=O)Nc2ccc(Cl)cc2)CC(C)(C)N1 [NBD-556, reference compound]: 961 µM
- Cc1ccc(NC(=O)C(=O)NC(c2nc(C)c(CO)s2)C2CCCCN2)cc1F.Cl (stereo not shown) [Compound 28]: ~106 µM
- CC1(C)CC(NC(=O)C(=O)Nc2ccc(Br)cc2)CC(C)(C)N1 [NBD-557]: 603 µM
- Cc1ccc(NC(=O)C(=O)NC(c2nc(C)c(CCO)s2)C2CCCCN2)cc1F.Cl (stereo not shown) [Compound 38]: > 64 µM

* * *

- System: HIV-1 89.6
- procedure_summary: Neutralization assay in PBMC (p24 ELISA)
- run_parameters: read-out: IC50 (μM) ± S.D., inhibitory activity on infection; 89.6, subtype B, PBMC, R5X4, laboratory strain
quantity_name: IC50 (µM)

* CC1(C)CC(NC(=O)C(=O)Nc2ccc(Cl)cc2)CC(C)(C)N1 [NBD-556, reference compound] | 4.8
* Cc1nc(C(NC(=O)C(=O)Nc2ccc(Cl)c(F)c2)C2CCCCN2)sc1CCO.Cl (stereo not shown) [Compound 39] | 6.2
* Cc1ccc(NC(=O)C(=O)NC(c2nc(C)c(CO)s2)C2CCCCN2)cc1F.Cl (stereo not shown) [Compound 28] | 3.9
* Cc1ccc(NC(=O)C(=O)NC(c2nc(C)c(CCO)s2)C2CCCCN2)cc1F.Cl (stereo not shown) [Compound 38] | 14.7

* * *

We begin with a simple list: items and their reported CC50.
- System: MT-2 cells
- procedure_summary: Cytotoxicity in MT-2 cells (XTT)
- Assay type: cell-based
quantity_name: CC50

* Cc1nc(C(NC(=O)C(=O)Nc2ccc(F)c(Cl)c2)C2CCCCN2)sc1CCO.Cl.Cl (centres unmarked) | ~94.7 µM
* Cc1nc(C(NC(=O)C(=O)Nc2ccc(Cl)cc2)C2CCCNC2)sc1CCO (centres unmarked) | > 78.5 µM
* Cc1nc(C(NC(=O)C(=O)Nc2ccc(Cl)cc2)C2CCCNC2)sc1CO (centres unmarked) | > 81 µM
* Cc1nc(C(NC(=O)CCC(=O)Nc2ccc(Cl)cc2)C2CCCN2)sc1CO (centres unmarked) | > 85 µM
* Cc1nc(C(NC(=O)C(=O)Nc2ccc(F)cc2)C2CCCCN2)sc1CO.Cl (centres unmarked) | > 113 µM
* Cc1nc(C(NC(=O)C(=O)Nc2ccc(F)c(Cl)c2)C2CCCCN2)sc1CO.Cl.Cl (centres unmarked) | > 77.8 µM
* Cc1nccn1CCCNC(=O)CCC(=O)Nc1ccc(Cl)cc1 | > 102 µM
* Cc1nc(C(NC(=O)C(=O)Nc2ccc(Cl)cc2)C2CCCCN2)sc1CO.Cl (centres unmarked) | > 108 µM
* Cc1nc(C(NC(=O)C(=O)Nc2ccc(Cl)cc2)C2CCCCN2)sc1CCO.O=CO (centres unmarked) | > 62 µM
* CNCC(NC(=O)C(=O)Nc1ccc(Cl)cc1)c1nc(C)c(CCO)s1 (centres unmarked) | > 43 µM
* Cc1nc(C(NC(=O)C(=O)Nc2ccc(Cl)cc2)C2CCCN2)sc1CCO (centres unmarked) | ~42 µM
* Cc1nc(C(NC(=O)C(=O)Nc2ccc(Cl)cc2)C2CCCN2)sc1CO (centres unmarked) | ~45 µM
* CN1CCN(C(=O)CNC(=O)CCC(=O)Nc2ccc(Cl)cc2)CC1 | ~97 µM
* CC(=O)c1ccc(NC(=O)C(=O)NC(c2nc(C)c(CO)s2)C2CCCCN2)cc1 (centres unmarked) | > 107 µM
* Cc1nc(C(NC(=O)C(=O)Nc2ccc(F)cc2F)C2CCCCN2)sc1CCO (centres unmarked) | > 105 µM
* Cc1nc(C(NC(=O)C(=O)Nc2ccc(Cl)cc2)C2CCNCC2)sc1CO (centres unmarked) | > 81 µM
* CC(C)c1nccn1CCCNC(=O)CCC(=O)Nc1ccc(Cl)cc1 | > 95 µM
* Cc1nc(C(NC(=O)C(=O)Nc2ccc(F)cc2)C2CCCCN2)sc1CCO (centres unmarked) | ~109 µM
* CC(=O)c1ccc(NC(=O)C(=O)NC(c2nc(C)c(CCO)s2)C2CCCCN2)cc1 (centres unmarked) | > 48.3 µM
* Cc1nc(C(NC(=O)C(=O)Nc2ccc(Cl)cc2)C2CCNCC2)sc1CCO (centres unmarked) | > 78.5 µM

* * *

- Test system: laboratory-adapted HIV-1 IIIB strain
- procedure_summary: microbe, parasite or virus in culture
- run_parameters: Human immunodeficiency virus 1, IIIB, MT2, read-out: MT-2 Cells IC50 (μM ± SD)
quantity_name: IC50

* CC1CCCN(c2ccccc2CNC(=O)CCC(=O)Nc2ccc(Cl)cc2)C1 (centres unmarked) | > 97 µM
* Cc1nc2ncccn2c1CN1CCC(NC(=O)CCC(=O)Nc2ccc(Cl)cc2)CC1 | > 33 µM
* CCC(CN1CCOCC1)NC(=O)CCC(=O)Nc1ccc(Cl)cc1 (centres unmarked) | 33.2 µM
* O=C(CCC(=O)Nc1ccc(Cl)cc1)NCc1ccc(S(=O)(=O)N2CCOCC2)cc1 | 23.9 µM
* CC(=O)N1CCCCC1C(NC(=O)C(=O)Nc1ccc(Cl)cc1)c1nc(C)c(CCO)s1 (centres unmarked) | > 52 µM
* C[C@@H](NC(=O)C(=O)Nc1ccc(Cl)cc1)[C@H](c1ccccc1)N1CCOCC1 | > 24.9 µM
* O=C(CCC(=O)Nc1ccc(Cl)cc1)NCCCN1CCCC(O)C1 (centres unmarked) | ~109 µM
* O=C(CCC(=O)Nc1ccc(Cl)cc1)NCCCN1CCC(O)CC1 | > 109 µM

* * *

We begin with a simple list: items and their reported % toxicity at that dose (number in parenthesis), MT-2 cells.
- Tested on: MT-2 cells
- procedure_summary: Cytotoxicity in MT-2 cells (XTT)
- Type: cell-based
- run_parameters: at the dose given as CC50 bound
quantity_name: % toxicity at that dose (number in parenthesis), MT-2 cells (%)

- Cc1nc(C(NC(=O)CCC(=O)Nc2ccc(Cl)cc2)C2CCCCN2)sc1CO.Cl (stereo not shown): 20
- Cc1ccc(NC(=O)C(=O)NC(c2nc(C)c(CCO)s2)C2CCCCN2)cc1F.Cl (stereo not shown): 30
- Cc1nc(C(NC(=O)C(=O)Nc2ccc(Cl)cc2)C2CCCCN2)sc1CCO.O=CO (stereo not shown): 0
- Cc1ccc(NC(=O)C(=O)NC(c2nc(C)c(CO)s2)C2CCCCN2)cc1F.Cl (stereo not shown): 30

* * *

We begin with a simple list: items and their reported CC50 at 3 days.
- procedure_summary: Cytotoxicity in TZM-bl cells (XTT)
- Type: cell-based
- run_parameters: human; TZM-bl cells, XTT, 3 days; read-out: TZM-bl cells CC50 (μM ± SD)
- Method: The cytotoxicity of small molecules in TZM-bl cells was measured by a colorimetric method using XTT (sodium 3′-(1-(phenylamino)-carbonyl)-3,4-tetrazolium-bis(4-methoxy-6-nitro)benzenesulfonic acid hydrate), a light yellowish tetrazolium dye. Briefly, 100 μl of a compound at graded concentrations was added to equal volume of cells (10^5/ml) in wells of 96-well plates followed by incubation at 37° C. for 3 days and addition of XTT (PolySciences, Inc., Warrington, Pa.).
quantity_name: CC50 at 3 days

• O=C(CCC(=O)Nc1ccc(Cl)cc1)NCCCN1CCCC(O)C1 (stereo not drawn) = ~82 µM
• O=C(CCC(=O)Nc1ccc(Cl)cc1)NCc1ccc(S(=O)(=O)N2CCOCC2)cc1 = ~30 µM
• CC1CCCN(c2ccccc2CNC(=O)CCC(=O)Nc2ccc(Cl)cc2)C1 (stereo not drawn) = > 97 µM
• CCC(CN1CCOCC1)NC(=O)CCC(=O)Nc1ccc(Cl)cc1 (stereo not drawn) = > 109 µM
• Cc1nc2ncccn2c1CN1CCC(NC(=O)CCC(=O)Nc2ccc(Cl)cc2)CC1 = > 88 µM
• O=C(CCC(=O)Nc1ccc(Cl)cc1)NCCCN1CCC(O)CC1 = ~109 µM
